# Test system: 786-0 renal
# MEASUREMENT_DESCRIPTION: NCI tumour cell line growth inhibition, 48 h
I'd appreciate it if you could supply TGI values for the items below.

Known TGI results, listed for orientation:
| MOLECULE | MEASURED_RESULT |
| --- | --- |
| Cc1ccc(C2=C(c3ccccc3)C(Br)(c3ccccc3)C(c3ccccc3)=C2c2ccc(C)cc2)cc1 | > 100 µM |
| COc1cc(C2(O)c3ccccc3C3=NCCN32)cc(OC)c1OC (stereo not drawn) | > 100 µM |

Now, please, on to the next molecule.
Entry under test: "Cc1ccc(/C=C2\CCCC\C2=N\O)cc1" . Its TGI was > 100 µM

====

# System: HCC-2998 colon
# MEASUREMENT_DESCRIPTION: NCI tumour cell line growth inhibition, 48 h
READOUT_NAME: TGI

Known TGI results, listed for orientation:
| COMPOUND | READOUT_NAME | MEASURED_RESULT |
| --- | --- | --- |
| c1ccc(SC(CCCCOC2CCCCO2)Sc2ccccc2)cc1 (stereo not given) | TGI | > 100 µM |
| C[CH2][Sn]([Cl])([Cl])[CH2]C | TGI | > 100 µM |
| COc1ccc2c(c1)OC(N)=C(C#N)C2c1ccc(F)cc1 (stereo not given) | TGI | > 100 µM |
| CCOC(=O)C1=NN(c2ccccc2)C2=CC(C)=NN(C)C(=S)N21 | TGI | > 100 µM |
| COc1ccc(CCc2ccccc2CC(=O)O)cc1 | TGI | > 100 µM |

Can you give me TGI for all of these, one by one?
1. O=C1CCc2cc3c(cc21)CC1(Cc2cc4c(cc2C1)CCCC4)C3
2. C1=NCCNCCN=Cc2ccccc2OCc2cccc(n2)COc2ccccc21
3. Nc1nc(Cl)cc(NCCCCCCCCCCCCNc2cc(Cl)nc(N)n2)n1
4. N#CN1CCC=C(c2cc3ccccc3[nH]2)C1
5. CC1=Nn2c(nnc2-c2ccc(N)cc2)NC(C)(C)C1

> 100 µM
> 55.5 µM
> 100 µM
> 448 µM
> 100 µM

====

I'd appreciate it if you could supply TGI values for the items below.
# Tested on: UACC-62 melanoma
# MEASUREMENT_DESCRIPTION: NCI tumour cell line growth inhibition, 48 h

Known TGI results, listed for orientation:
| COMPOUND | TESTED_TARGET | MEASURED_RESULT |
| --- | --- | --- |
| C=CCCCCCC(O)C(O)C/C=C\C/C=C\CC (stereo unspecified) | UACC-62 melanoma | > 18.8 µM |
| CO/N=C(/C(=O)OC)c1ccccc1COc1cccc(C(F)(F)F)c1 | UACC-62 melanoma | > 100 µM |
| Nc1cccc(C#Cc2cccc(C#Cc3cccc(N)n3)n2)n1 | UACC-62 melanoma | > 100 µM |

Can you give me TGI for all of these, one by one?
1. O=S1c2ccccc2SCSc2ccccc21
2. O=C(NCP(=O)(O)O)c1cccnc1
3. Clc1ccccc1-c1nnc2c(-c3ccccc3)nc3ccccc3n12

["> 100 µM", "> 100 µM", "> 100 µM"]

====

# Test system: UO-31 renal
# MEASUREMENT_DESCRIPTION: NCI tumour cell line growth inhibition, 48 h
READOUT_NAME: TGI

Known TGI results, listed for orientation:
| STRUCTURE_NOTATION | TESTED_TARGET | TGI |
| --- | --- | --- |
| CCOC(=O)C(=CNC(=S)Nc1c(CC)cccc1CC)C(=O)OCC | UO-31 renal | > 100 µM |
| O=C(CCCCCCC(=O)Nc1ccc2c(c1)/C(=C/c1ccc[nH]1)C(=O)N2)NO | UO-31 renal | > 100 µM |

Now, please, on to the next molecule.
Entry under test: "NCCCCN(Cc1nc2ccccc2[nH]1)[C@H]1CCCc2cccnc21" . Its TGI was > 72.7 µM

====

# System: HT29 colon
# MEASUREMENT_DESCRIPTION: NCI tumour cell line growth inhibition, 48 h
I'd appreciate it if you could supply TGI values for the items below.

Known TGI results, listed for orientation:
| COMPOUND | TESTED_TARGET | MEASURED_RESULT |
| --- | --- | --- |
| COC1=CC(=O)[C@]2(C)[C@H](C1=O)C(C)[C@H]2c1ccccc1 (stereo partly drawn) | HT29 colon | > 100 µM |
| Cc1cc(-c2nc3cc(O)ccc3s2)ccc1N | HT29 colon | 50.7 µM |

Now, please, on to the next compound.
Entry under test: "O=P1(O)c2ccccc2Nc2cc(C(F)(F)F)ccc21" . Its TGI was > 100 µM

====

# Tested on: KM12 colon
# MEASUREMENT_DESCRIPTION: NCI tumour cell line growth inhibition, 48 h
I'd appreciate it if you could supply TGI values for the items below.

Known TGI results, listed for orientation:
| COMPOUND | TGI |
| --- | --- |
| O=C(CN1CCOCC1)Nc1ccc2c(c1)C1Oc3ccccc3CC1CO2 (stereo not drawn) | > 100 µM |
| O=P1(O)c2ccccc2Nc2cc(C(F)(F)F)ccc21 | > 100 µM |

Now, please, on to the next compound.
Entry under test: "C1=NCCNCCN=Cc2ccccc2OCc2cccc(n2)COc2ccccc21" . Its TGI was > 62.2 µM

====

# Tested on: SNB-19 CNS
# MEASUREMENT_DESCRIPTION: NCI tumour cell line growth inhibition, 48 h
I'd appreciate it if you could supply TGI values for the items below.

| MOLECULE | TESTED_TARGET | TGI |
| --- | --- | --- |
| CCCCc1ccc(Nc2nc(N)c3ncn(COCCO)c3n2)cc1 | SNB-19 CNS | > 100 µM |

Can you give me TGI for all of these, one by one?
1. O=C(N/N=C\c1ccc(N(CCCl)CCCl)cc1Cl)c1cccnc1
2. CCOc1ccccc1NC(=O)C1=C(C)NC(C)=C(C(=O)Nc2ccccc2OCC)C1c1ccc(NC(C)=O)cc1
3. CC1SC(=O)SC1C (configuration not stated)
4. C=CC(=O)Nc1cccc(C)c1Nc1ncc2cc(-c3c(Cl)c(OC)cc(OC)c3Cl)ccc2n1

1: > 100 µM; 2: > 100 µM; 3: > 100 µM; 4: 47.1 µM

====

# Tested on: MALME-3M melanoma
# MEASUREMENT_DESCRIPTION: NCI tumour cell line growth inhibition, 48 h
# label = True if TGI >= 40 µM else False

| STRUCTURE_NOTATION | GROUP_LABEL |
| --- | --- |
| O=C(N/C(=C\c1ccc(Oc2ccc(Cl)c(Cl)c2)cc1)c1nc2ccccc2[nH]1)c1ccccc1 | True |
| COc1cc2cccc(NC(=O)c3cc(OC)c(OC)c(OC)c3Br)c2cc1OC | True |
| C/C(=N\NC(=S)NNC(=S)N(C)c1ccccc1)c1ccccn1 | False |
| COC(=O)[C@@]1(O)C[C@H]2O[C@]1(C)n1c3ccccc3c3c4c(c5c6ccccc6n2c5c31)C(=O)NC4 | False |

Is it the case that "COC(=O)/C(=C\c1cn(C(C)=O)c2ccccc12)P(=O)(OC)OC" has TGI reaching or exceeding 40 µM? True

====

# Tested on: NCI-H226 lung
# MEASUREMENT_DESCRIPTION: NCI tumour cell line growth inhibition, 48 h
READOUT_NAME: TGI

| MOLECULE | TGI |
| --- | --- |
| OCCNCCNc1c2ccccc2nc2oc3ccccc3c12 | 62 µM |
| COc1cc(C2(O)c3ccccc3C3=NCCN32)cc(OC)c1OC (stereo not given) | > 100 µM |
| COc1ccc2nc3ccc(OC)cc3c(SCC3CO3)c2c1 (stereo not given) | > 100 µM |
| CC1=NN(C(=O)c2ccccc2O)C(c2ccccc2Cl)C1C(=O)Nc1ccccc1 (stereo not given) | 8.02 µM |
| N=C(N)c1ccc(-c2ccc(-c3cccs3)s2)nc1 | 15.8 µM |

Can you give me TGI for all of these, one by one?
1. COc1ccc2c(c1)OC(N)=C(C#N)C2c1ccc(F)cc1 (stereo not given)
2. CCSC(=O)/C=C1\CN(C(=O)OC(C)(C)C)C1C(=O)OC(C)(C)C (stereo not given)
3. CC1CC(C)(O)CC(C(O)CC2CC(=O)NC(=O)C2)C1=O (stereo not given)
4. O=C(NCP(=O)(O)O)c1cccnc1
5. C=C1C(=O)O[C@H]2[C@H]1CC/C(CNS(=O)(=O)c1cccc3ccccc13)=C\CC[C@@]1(C)O[C@@H]21

1. > 100 µM
2. 27.5 µM
3. 0.764 µM
4. > 100 µM
5. 33 µM

Can you give me TGI for all of these, one by one?
1. COc1ccc2nc(C)cc(Nc3ccccc3O)c2c1
2. COc1ccc(CCc2ccccc2CC(=O)O)cc1
3. CCN(CC)c1cccc2c1C1(O)CCC3(CC21)OCCCCO3 (stereo not given)
4. Nc1nc(Cl)cc(NCCCCCCCCCCCCNc2cc(Cl)nc(N)n2)n1

1. > 100 µM
2. > 100 µM
3. > 100 µM
4. 66.9 µM

Can you give me TGI for all of these, one by one?
1. NS(=O)(=O)c1nnc(/N=C(/CCC(=O)O)C(=O)O)s1
2. CCN1C[C@]2(C)CC[C@H](OCc3ccccc3)C34C5C[C@@H]6CC[C@](O)(C(C[C@@H]32)C14)C5[C@H]6OCc1ccccc1 (stereo not given in full)
3. COc1ccc(/C=C2\CN(C)CC3C2=NC(=S)NC3c2ccc(OC)cc2)cc1 (stereo not given)
4. CC(=O)c1c[nH]cc1CO
5. CN(C)CCNC(=O)c1cc(-c2nccn2C)nc2ccccc12
6. N#C/C(=C\c1ccc(Br)cc1)c1nc(-c2cc3ccccc3oc2=O)cs1

1: > 100 µM; 2: > 100 µM; 3: > 100 µM; 4: > 10 µM; 5: > 100 µM; 6: > 50 µM
